Below is a list of entries, each paired with its recorded IC50 (nM) Ca2+ assay (method 1) value.
SYSTEM_UNDER_TEST: human CXCR4 (human, UniProt P61073 1-352)
Sequence (P61073 whole entry): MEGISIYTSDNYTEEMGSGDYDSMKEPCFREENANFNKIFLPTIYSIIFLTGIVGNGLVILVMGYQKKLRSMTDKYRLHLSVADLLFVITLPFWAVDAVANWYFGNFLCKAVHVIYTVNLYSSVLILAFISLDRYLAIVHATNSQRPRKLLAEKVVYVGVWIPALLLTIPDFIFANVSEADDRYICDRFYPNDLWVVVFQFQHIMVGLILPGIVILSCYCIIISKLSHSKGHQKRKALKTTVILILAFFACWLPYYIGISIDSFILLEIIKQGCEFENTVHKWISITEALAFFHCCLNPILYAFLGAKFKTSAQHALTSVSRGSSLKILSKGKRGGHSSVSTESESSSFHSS
ASSAY_SUMMARY: cell-based or functional assay
Bridges are numbered along the chain shown (N, C = ends). [ ]: non-standard residue; d: D form. 2Nal = N[C@@H](Cc1ccc2ccccc2c1)C(=O)O; Cit = NC(=O)NCCC[C@H](N)C(=O)O
Give a bare numeral; the unit nM is implied.

>>> result_number("cyclo(YR[Cit]FRV[dP]RR[2Nal]VY[Cit]K[dP]P) (SMILES CC(C)[C@@H]1NC(=O)[C@H](Cc2ccc3ccccc3c2)NC(=O)[C@H](CCCNC(=N)N)NC(=O)[C@H](CCCNC(=N)N)NC(=O)[C@H]2CCCN2C(=O)[C@H](C(C)C)NC(=O)[C@H](CCCNC(=N)N)NC(=O)[C@H](Cc2ccccc2)NC(=O)[C@H](CCCNC(N)=O)NC(=O)[C@H](CCCNC(=N)N)NC(=O)[C@H](Cc2ccc(O)cc2)NC(=O)[C@@H]2CCCN2C(=O)[C@H]2CCCN2C(=O)[C@H](CCCCN)NC(=O)[C@H](CCCNC(N)=O)NC(=O)[C@H](Cc2ccc(O)cc2)NC1=O) [Example 21]")
550

Now for another entry.
# binder cyclo(YR[Cit]CRVGRR[2Nal]CY[Cit]K[dP]P) (disulfide 4-11; SMILES CC(C)[C@@H]1NC(=O)[C@H](CCCNC(=N)N)NC(=O)[C@@H]2CSSC[C@H](NC(=O)[C@H](Cc3ccc4ccccc4c3)NC(=O)[C@H](CCCNC(=N)N)NC(=O)[C@H](CCCNC(=N)N)NC(=O)CNC1=O)C(=O)N[C@@H](Cc1ccc(O)cc1)C(=O)N[C@@H](CCCNC(N)=O)C(=O)N[C@@H](CCCCN)C(=O)N1CCC[C@@H]1C(=O)N1CCC[C@H]1C(=O)N[C@@H](Cc1ccc(O)cc1)C(=O)N[C@@H](CCCNC(=N)N)C(=O)N[C@@H](CCCNC(N)=O)C(=O)N2) [Example 53] ; its IC50 (nM) Ca2+ assay (method 1) = 57.8

Attribution: patent US20150087577A1
